Assay: Toxicity liver stage against HepG2, at 10uM
Assay type: cell-based
Set-up: test concentration 10 uM, cell line HepG2-A16-CD81EGFP
Conditions: human, HepG2-A16-CD81EGFP cells; read-out: INHIBITION
Assay readout: cytotoxicity at 10 µM (%)
# unit: % | format: bare number

Req: I would be grateful if you could share the reported cytotoxicity at 10 µM for Cc1ccc(C)c(OCC(O)CN(C)CC(=O)Nc2cc(C)on2)c1 (configuration not stated) .
Resp: -14.4

Req: Would you kindly repeat that for CC(C)N1CCc2ncn(C(C)C)c2C1C(=O)N1CCN(C)CC1 (configuration not stated) ?
Resp: -0.849

Req: Would you kindly repeat that for `CCOc1ccc(C(F)(F)F)cc1NCc1cc(C)on1` ?
Resp: -49.3

Req: Would you kindly repeat that for `COCc1nc2cc(NCc3nc(C)cs3)ccc2o1` ?
Resp: -2.57

Req: Would you kindly repeat that for Cn1cccc1C(O)CNS(=O)(=O)c1ccccc1Br (configuration not stated) ?
Resp: -11.1

Req: Would you kindly repeat that for `CC(C)N(C)Cc1cnc2n1CCN(C(=O)NC1CCCC1)C2` ?
Resp: 4.14

Req: Would you kindly repeat that for `COCCN1CCc2cc(C(=O)N(C)C)c(NC(C)C)nc2CC1` ?
Resp: -3.91

Req: Would you kindly repeat that for `c1cncc(CN2CCn3cc(CN4CCCCC4)nc3C2)c1` ?
Resp: -102

Req: Would you kindly repeat that for N#Cc1cccc(OCCN2CCCC2C(=O)NC2CC2)c1 (configuration not stated) ?
Resp: -3.78

Req: Would you kindly repeat that for O=C(NC1CC(=O)N(C2Cc3ccccc3C2)C1)c1cc[n+]([O-])cc1 (configuration not stated) ?
Resp: -1.03

Req: Would you kindly repeat that for `Cc1ccc(C(=O)N2CCN(Cc3ccccc3)CC2)n1C` ?
Resp: -1.28

Req: Would you kindly repeat that for `COCc1cccc(S(=O)(=O)Nc2ncc(C)s2)c1` ?
Resp: -8.13

Req: Would you kindly repeat that for `COc1ccc2c(=O)n(CC3CC3)ccc2c1OC` ?
Resp: 12.8

Req: Would you kindly repeat that for CCOCc1ccc(NC(=O)N2CCCC2c2nncn2C)cc1 (configuration not stated) ?
Resp: 6.53

Req: Would you kindly repeat that for `c1ccc(NCc2cn3c(n2)CN(Cc2cccs2)CC3)nc1` ?
Resp: 5.22

Req: Would you kindly repeat that for `COCCN1CCC2(CC1)C(=O)Nc1ccc(C(=O)NC(C)C)cc12` ?
Resp: 2.02

Req: Would you kindly repeat that for CC1CN(CC(=O)Nc2nccs2)CCN1Cc1nccn1C (configuration not stated) ?
Resp: -15.4

Req: Would you kindly repeat that for CC(C)N(C)CCC(=O)N1CCCC(c2ccc(C(=O)O)cc2)C1 (configuration not stated) ?
Resp: -4.1

Req: Would you kindly repeat that for `COCCn1nc(C(=O)N(C)Cc2cnn(C)c2)ccc1=O` ?
Resp: -2.44

Req: Would you kindly repeat that for CN1CCC(N(Cc2ccncc2)C(=O)COCC2CCCCO2)CC1 (configuration not stated) ?
Resp: -150

Req: Would you kindly repeat that for `CCOC(=O)NCCC(=O)NCc1ccc(Oc2ccc(F)cc2)nc1` ?
Resp: -18.9

Req: Would you kindly repeat that for `COc1cc(CNCc2ccnc(N3CCCC3)c2)cc(OC)c1` ?
Resp: 8.8

Req: Would you kindly repeat that for `O=C(c1cc2c(F)cccc2[nH]1)N1CCC(Nc2cccnn2)CC1` ?
Resp: -19.3

Req: Would you kindly repeat that for `COc1ccccc1CC(=O)N1CCC(NCc2ccc(C)o2)CC1` ?
Resp: -5.28

Req: Would you kindly repeat that for O=C(NCc1ccc(F)cc1)C1CCCN(c2ccc3nncn3n2)C1 (configuration not stated) ?
Resp: -4.46

Req: Would you kindly repeat that for Cc1ccccc1CCC1CCCN(Cc2nnc(-c3ccco3)o2)C1 (configuration not stated) ?
Resp: -116

Req: Would you kindly repeat that for Cc1cnc2n(c1=O)CC(C(=O)NCc1ccccc1Cl)CS2 (configuration not stated) ?
Resp: -1.74

Req: Would you kindly repeat that for `O=C(C1CCOCC1)N1CCc2ncnc(-c3ccc(F)cc3)c2CC1` ?
Resp: -6.28

Req: Would you kindly repeat that for `Clc1cccc(C[C@@H]2NCCC[C@@H]2Nc2cccc(Cl)c2)c1` ?
Resp: 86

Req: Would you kindly repeat that for `CC(C)c1cc(C(=O)N2CCN(c3cccc(C(=O)O)c3)CC2)n(C)n1` ?
Resp: -2.95

Req: Would you kindly repeat that for Cc1ccc(-c2noc(CN3CCOC(Cn4cccn4)C3)n2)cc1 (configuration not stated) ?
Resp: -5.98

Req: Would you kindly repeat that for `CCc1cccc(C)c1NC(=O)c1ccccc1N(C)S(C)(=O)=O` ?
Resp: 17.8

Req: Would you kindly repeat that for `CCC1(CC)C(=O)NC(=O)N=C1Nc1ccc(C)cc1` ?
Resp: -6.34

Req: Would you kindly repeat that for `Cc1cccc(N2CC[C@H]3[C@H](CO[C@@H]3CN(C)Cc3ccco3)C2)n1` ?
Resp: 13.8

Req: Would you kindly repeat that for `O=C(CN1C(=O)CCC1=O)N1CCOC2(CCOCC2)C1` ?
Resp: 4.1

Req: Would you kindly repeat that for CCCn1nccc1C(=O)N1CCN(C2CCc3ccccc3C2)CC1 (configuration not stated) ?
Resp: -130

Req: Would you kindly repeat that for O=C(O)C1(Cc2ccccc2F)CCCN(c2ncnc3[nH]ccc23)C1 (configuration not stated) ?
Resp: -0.44

Req: Would you kindly repeat that for `Cc1ccc(CNC(=O)c2nc3c(o2)CN(c2ncccn2)C3)o1` ?
Resp: -5.58

Req: Would you kindly repeat that for CC(=O)N1CCC2(C1)c1ccccc1S(=O)(=O)N2Cc1ccccc1 (configuration not stated) ?
Resp: -127

Req: Would you kindly repeat that for `COc1ccc(CN(C)[C@@H]2COC[C@H]2c2ccc(F)cc2)cc1` ?
Resp: 10.9

Req: Would you kindly repeat that for `O[C@@H]1CCN(c2ccc3c(Cl)ccnc3c2F)C1` ?
Resp: 2.12

Req: Would you kindly repeat that for `COc1ccc(S(=O)(=O)NC(=O)c2cscn2)cc1C` ?
Resp: 6.84

Req: Would you kindly repeat that for CC(NCc1ccc(-c2ccc(Cl)cc2)o1)c1nnc2n1CCC2 (configuration not stated) ?
Resp: -2.04

Req: Would you kindly repeat that for `Cc1cc(-c2nc(-c3c(C)ncc4c3CCNC4)no2)nc(C)n1` ?
Resp: 4.43

Req: Would you kindly repeat that for CN(C)CCNCCC(c1ccccc1)C1CCOC(C)(C)C1 (configuration not stated) ?
Resp: -5.67

Req: Would you kindly repeat that for Cn1ncc(C2CC(=O)NCc3nc4ccccn4c32)c1C1CC1 (configuration not stated) ?
Resp: 6.9

Req: Would you kindly repeat that for `CSc1sc2c(O)cc(=O)[nH]c2c1C(N)=O` ?
Resp: -2.1
